B1: FUT8 (parent)
chain: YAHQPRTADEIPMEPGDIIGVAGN

variants of: B1; assay: protein stability index of a GFP-peptide fusion (GPS, HEK-293T) (PSI 1-6); higher = more stable; settings: c terminus: a fixed tail appended;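 note: lentivirally expressed fusions sorted by FACS into six bins by GFP to DsRed ratio, PSI derived from sequencing read proportions per bin multiplied by bin number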
propertyLabel: protein stability index
Please respond with just the number, no unit label.

N24F ... 2.46
A22L ... 3.63
Q4A ... 4.07

For the variant "I11T" , what protein stability index is on record?
4.2

For the variant "R6S" , what protein stability index is on record?
4.46

For the variant "A8L" , what protein stability index is on record?
3.43
